Reference source: PubChem BioAssay (NCI)

Test system: MCF7 breast
Test: NCI-60 one-dose screen, 48 h
Details: 10 µM unless noted
This is part of a sample that, as a whole, favours compounds with a hit. Of some 83,000 tested, about 20% had one in any assay. Activity calls are given as the source filed them. The calls were made as follows: active = growth percent below 10; inactive = the rest.
Give one outcome, nothing more. List: 1.0 (active), 0.0 (inactive)

Task: Identify the outcome logged in this assay for the molecule shown: COc1ccc(N2CCN(C(=O)c3sc4nc(C)c(Br)c(C)c4c3N)CC2)cc1
Result: 0.0

Task: So what was the verdict on O=C(C1CCCCC1)[C@@H]1[C@]2(C(=O)NC3CCCCC32)[C@@H]2CCCN2[C@@]12C(=O)NC1CCC(Cl)CC12 (stereo partly drawn) in this test?
Result: 1.0

Task: Please let me know the test result on file for Cc1ccc(/C=C/C(=O)c2ccc(-n3cc(CN4CCN(c5cc6c(cc5F)c(=O)c(C(=O)O)cn6C5CC5)CC4)nn3)cc2)cc1 .
Result: 0.0

Task: Call for entry Cc1ccnc(Nc2ccc([N+](=O)[O-])c(NCCN3CCOCC3)n2)c1 :
Result: 0.0

Task: Hey, what did the test say about O=C1Nc2c(C(=O)O)cccc2/C1=N/c1n[nH]c(=S)s1 ?
Result: 0.0

Task: Each molecule tested received a call. Report the one for O=C(c1c[nH]c2ccccc12)c1n[nH]c(=S)n1-c1cccc(Br)c1 .
Result: 0.0

Task: Could you please tell me the result logged for COc1cccc(-c2cc(-c3cccc(Cl)c3)c(C#N)c(=O)[nH]2)c1 in this assay?
Result: 0.0

Task: Outcome logged for CNC(=O)c1cc(Oc2ccc3c(c2)sc2nc(-c4ccc(OC)cc4)cn23)ccn1 in this assay:
Result: 0.0

Task: Hi team, can someone confirm the assay call for COc1ccc(N2CCC(=S)NC2=S)cc1 ?
Result: 0.0

Task: # outcome recorded in this test, key = N[C@H]1CCC[C@@H]1NCCCCN1C(=O)c2cccc3cc([N+](=O)[O-])cc(c23)C1=O
Result: 0.0

Task: Assay result, entry O=C1Nc2ccccc2/C1=C/c1cccn1C(=O)c1ccc(Cl)s1 — outcome?
Result: 0.0

Task: How was CN(C)CCN1C(=O)c2cccc3c(/C=C/CN4C(=O)c5cccc6cccc(c56)C4=O)ccc(c23)C1=O classified in this test?
Result: 1.0

Task: For CCN(CC)CCCN1C(=O)c2c(c(C)c3c(oc4ccc(OC)cc43)c2C)C1=O , which call appears in the assay record?
Result: 0.0
